// provenance: ChEMBL document CHEMBL1143847

targetDesc: Beta-lactamase (Aeromonas hydrophila, UniProt Q44079)
Sequence (Q44079 whole entry): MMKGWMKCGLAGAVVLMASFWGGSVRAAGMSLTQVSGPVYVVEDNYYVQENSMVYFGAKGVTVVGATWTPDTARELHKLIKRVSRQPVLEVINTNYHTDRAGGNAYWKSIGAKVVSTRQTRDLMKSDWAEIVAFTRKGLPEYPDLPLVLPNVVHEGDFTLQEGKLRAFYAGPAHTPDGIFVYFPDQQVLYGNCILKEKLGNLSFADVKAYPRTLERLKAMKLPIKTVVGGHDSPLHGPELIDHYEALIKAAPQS
experimentNotes: Inhibition of Aeromonas hydrophila beta lactamase CphA by competitive inhibition assay
Reported Ki values for a set of compounds
# answer = value followed by unit

Example entries and their recorded answers appear below.
O=C(O)c1ccc(C(=O)O)nc1
420 µM
O=C(O)c1ccccn1
5.7 µM
O=C(O)c1ccncc1C(=O)O
1100 µM

Now take the following compound into account.
The compound `O=C(O)c1cccnc1C(=O)O` showed Ki equal to 200 µM
